The reader will find reported TGI values listed item by item below.
System: OVCAR-4 ovarian
Assay: NCI tumour cell line growth inhibition, 48 h
Report the value in µM with no unit label.

Completed entries (count: 3):
- CS(=O)(=O)Nc1cccc(-c2cc(-c3ccccc3Cl)c(C#N)c(N)n2)c1: 35.6
- COc1cc(/C=C/c2cc(/C=C/c3ccc(O)c(OC)c3)nc(N)n2)ccc1O: 11.5
- CC#C/C(=N\OC[C@H]1COCCN1)c1ccc2ncnc(Nc3ccc(OCc4cccc(F)c4)c(Cl)c3)c2c1: 3.16

Provide TGI, recorded with OVCAR-4 ovarian, of C[C@]12Cc3cnn(-c4ccc(F)cc4)c3NC1CC[C@@H]1C2CC[C@@]2(C)C1CC[C@@H]2O (some centres undefined)
27.5

Where do these numbers come from? They come from PubChem BioAssay (NCI).
